Property: Muscle, accumulated activity; scope: individual compounds
- System: KB tumor-bearing athymic nude mice
- Experiment summary: Biodistribution of 177Lu-RedFols in KB tumor-bearing mice
- Type: in vivo, mouse
- Test context: 24 h p.i.
Report the figure in % IA/g without appending any unit label.

>  <Compound>
CN1c2c(nc(N)[nH]c2=O)NCC1CNc1ccc(C(=O)NC(CCC(=O)NC(CCCCNC(=O)CN2CCN(CC(=O)[O-])CCN(CC(=O)[O-])CCN(CC(=O)[O-])CC2)C(=O)NC(CCCCNC(=O)c2ccc(CNC(=O)CCCCc3ccc(I)cc3)cc2)C(=O)O)C(=O)O)cc1.[177Lu+3] (stereo not drawn) [[^177Lu]Lu-6S-RedFol-25]

>  <Unit info>
% IA/g

>  <Muscle, accumulated activity>
0.10

$$$$
>  <Compound>
CN1c2c(nc(N)[nH]c2=O)NC[C@H]1CNc1ccc(C(=O)N[C@@H](CCC(=O)N[C@@H](CCCCNC(=O)CN2CCN(CC(=O)O)CCN(CC(=O)O)CCN(CC(=O)O)CC2)C(=O)N[C@@H](CCCCNC(=O)c2ccc(CNC(=O)CCCCc3ccc(I)cc3)cc2)C(=O)O)C(=O)O)cc1 [[^177Lu]Lu-6R-RedFol-25, metal not drawn]

>  <Unit info>
% IA/g

>  <Muscle, accumulated activity>
1.1

$$$$
>  <Compound>
CN1c2c(nc(N)[nH]c2=O)NC[C@H]1CNc1ccc(C(=O)N[C@@H](CCC(=O)N[C@@H](CCCCNC(=O)CN2CCN(CC(=O)O)CCN(CC(=O)O)CCN(CC(=O)O)CC2)C(=O)N[C@@H](CCCCNC(=O)c2ccc(CNC(=O)CCCc3ccc(I)cc3)cc2)C(=O)O)C(=O)O)cc1 [[^177Lu]Lu-6R-RedFol-3, metal not drawn]

>  <Unit info>
% IA/g

>  <Muscle, accumulated activity>
1.0

$$$$

Consider CN1c2c(nc(N)[nH]c2=O)NCC1CNc1ccc(C(=O)NC(CCC(=O)NC(CCCCNC(=O)CN2CCN(CC(=O)[O-])CCN(CC(=O)[O-])CCN(CC(=O)[O-])CC2)C(=O)NC(CCCCNC(=O)c2ccc(CNC(=O)CCCc3ccc(I)cc3)cc2)C(=O)O)C(=O)O)cc1.[177Lu+3] (stereo not drawn) [[^177Lu]Lu-6S-RedFol-3] . Its measured Muscle, accumulated activity is 1.0

Form field Muscle, accumulated activity, entry CN1c2c(nc(N)[nH]c2=O)NC[C@H]1CNc1ccc(C(=O)N[C@@H](CCC(=O)N[C@@H](CCCCNC(=O)CN2CCN(CC(=O)O)CCN(CC(=O)O)CCN(CC(=O)O)CC2)C(=O)N[C@@H](CCCCNC(=O)CCCCc2ccc(I)cc2)C(=O)O)C(=O)O)cc1 [[^177Lu]Lu-6R-RedFol-24, metal not drawn] : 0.75

###

Recorded Tumor-to-blood ratio by entry
- Tested on: KB tumor-bearing athymic nude mice
- Experiment summary: Biodistribution of 177Lu-RedFols in KB tumor-bearing mice
- Assay type: in vivo, mouse
- Test context: 1 h p.i.
Answer as a number with no unit attached.

>  <Compound>
CN1c2c(nc(N)[nH]c2=O)NCC1CNc1ccc(C(=O)NC(CCC(=O)NC(CCCCNC(=O)CN2CCN(CC(=O)[O-])CCN(CC(=O)[O-])CCN(CC(=O)[O-])CC2)C(=O)NC(CCCCNC(=O)c2ccc(CNC(=O)CCCCc3ccc(I)cc3)cc2)C(=O)O)C(=O)O)cc1.[177Lu+3] (stereo not drawn) [[^177Lu]Lu-6S-RedFol-25]

>  <Target desc>
KB tumor-bearing athymic nude mice

>  <Tumor-to-blood ratio>
1.3

$$$$
>  <Compound>
CN1c2c(nc(N)[nH]c2=O)NC[C@H]1CNc1ccc(C(=O)N[C@@H](CCC(=O)N[C@@H](CCCCNC(=O)CN2CCN(CC(=O)O)CCN(CC(=O)O)CCN(CC(=O)O)CC2)C(=O)N[C@@H](CCCCNC(=O)CCCCc2ccc(I)cc2)C(=O)O)C(=O)O)cc1 [[^177Lu]Lu-6R-RedFol-24, metal not drawn]

>  <Target desc>
KB tumor-bearing athymic nude mice

>  <Tumor-to-blood ratio>
2.0

$$$$

Tumor-to-blood ratio measured on CN1c2c(nc(N)[nH]c2=O)NC[C@H]1CNc1ccc(C(=O)N[C@@H](CCC(=O)N[C@@H](CCCCNC(=O)CN2CCN(CC(=O)O)CCN(CC(=O)O)CCN(CC(=O)O)CC2)C(=O)N[C@@H](CCCCNC(=O)c2ccc(CNC(=O)CCCc3ccc(I)cc3)cc2)C(=O)O)C(=O)O)cc1 [[^177Lu]Lu-6R-RedFol-3, metal not drawn] = 0.33
